Molecular target: IS2#3 (Homo sapiens)
Construct: gene ITSN2
Sequence (Q9NZM3 981-1039): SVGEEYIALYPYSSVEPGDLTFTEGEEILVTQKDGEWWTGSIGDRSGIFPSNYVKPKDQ
Conditions: n = 3
QUANTITY: Kd (nM)
Answer with a number only, understood to be in nM.

IN: Looking for the measured Kd of Src-associated in mitosis 68 kDa (KHDRBS1), full-length, N-terminally His-tagged recombinant [Sam68] , can you help?
OUT: 59

Numbers sourced from paper PMC3379994.
